test system: Fer (mouse); assay: phosphorylation enrichment, bacterial display (enrichment ratio); higher = better substrate or ligand; peptides without Tyr show the background
This section presents sequences with their documented phosphorylation enrichment values.
Lab note: record the figure alone, no unit after it.

Examples with their reported phosphorylation enrichment follow.
HSDYQYSQRSQ [PKP2_Y168] ... 0.365
FFRDGCMPRQF [GSS_Y270_Y270C_YF] ... 0.489
SSYDIYHLSRE [KIR3DL2_Y253] ... 1.74

Any idea what its phosphorylation enrichment is? The sequence is FIGCIYLFLTK [GARS1_Y414_R412C_YF]
0.456

Field request: phosphorylation enrichment | item: KKRRSYGNSSD [SELENOK_Y52]
0.417

Which value of phosphorylation enrichment has been reported for GLTSTYAGIRK [ROBO1_Y932] in the records?
0.521

Requested field: phosphorylation enrichment. Item: TLNHQYDYTFD [CSNK1A1_Y292]
0.432

Returns the measured phosphorylation enrichment for the input sequence. Input: SGPRRYTMAAL [TTR_Y125_I127M]
0.383

Request the reported phosphorylation enrichment associated with RYVTRSIYNRE [HLA-DQB1_Y62_Y62S]
0.495

If you can, please state the reported phosphorylation enrichment value of RPSRWYQFPVA [ANOS1_Y259_R262P] .
0.692

Item under review: HFGNNYTDVLQ [MACC1_Y803_R804T_YF] . Reported phosphorylation enrichment?
0.573

Fill in the blank: the reported phosphorylation enrichment of TTPGPYRSIYF [MPG_Y71] is ____.
0.54

// lookup phosphorylation enrichment for FSGKAYADEER [CRIM1_Y826]
0.486

May I ask what phosphorylation enrichment has been recorded for LRFDVYGGENE [STOX1_Y610_E608D_YF] ?
0.594

###

target: c-Src SH2; experiment: SH2 binding enrichment of the phosphorylated peptide, bacterial display (enrichment ratio); higher = better substrate or ligand; peptides without Tyr show the background;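 further: peptide library displayed on the E. coli surface as eCPX fusions, selected cells deep-sequenced, score is each peptide's frequency after selection divided by its frequency in the input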
quantity_kind: SH2 binding enrichment

Field: example entries. Status: answers known.
ERIEFYELDKK [PMM2_Y145] ... 0.708
IVFTSYVLTIL [TAS2R16_Y239_F240V] ... 0.806
EILLSDLRTGY [TGM1_Y365_Y365D] ... 0.447
KRFRIYHLAIS [BRCA2_Y3009_T3013I_YF] ... 1.56
KLFIEYPTGSG [IRF2BPL_Y423] ... 0.505

Sample YGAHNYHPLPV [OAT_Y55] — what was its SH2 binding enrichment?
1.01

Dear colleague, I am looking for the recorded SH2 binding enrichment of the following sequence: YGPPQYNMQYS [ERBB2IP_Y977_I979M]
0.434

Which measured SH2 binding enrichment value corresponds to SSYDIYHLSRE [KIR3DL2_Y253] ?
0.73

Which value of SH2 binding enrichment has been reported for GENTVYAQVFN [LY9_Y603_M602V] in the records?
1.03

Requested field: SH2 binding enrichment. Item: FGVTLYPNSRE [MEP1A_Y472]
0.638

Can you share its SH2 binding enrichment? I mean this sequence: ADDSYYTVRSA [ZAP70_Y493_A495V]
0.874

###

target: Hck (UniProt P08631); test: phosphorylation enrichment, bacterial display (enrichment ratio); higher = better substrate or ligand; peptides without Tyr show the background
Sequence (P08631 whole entry, looked up): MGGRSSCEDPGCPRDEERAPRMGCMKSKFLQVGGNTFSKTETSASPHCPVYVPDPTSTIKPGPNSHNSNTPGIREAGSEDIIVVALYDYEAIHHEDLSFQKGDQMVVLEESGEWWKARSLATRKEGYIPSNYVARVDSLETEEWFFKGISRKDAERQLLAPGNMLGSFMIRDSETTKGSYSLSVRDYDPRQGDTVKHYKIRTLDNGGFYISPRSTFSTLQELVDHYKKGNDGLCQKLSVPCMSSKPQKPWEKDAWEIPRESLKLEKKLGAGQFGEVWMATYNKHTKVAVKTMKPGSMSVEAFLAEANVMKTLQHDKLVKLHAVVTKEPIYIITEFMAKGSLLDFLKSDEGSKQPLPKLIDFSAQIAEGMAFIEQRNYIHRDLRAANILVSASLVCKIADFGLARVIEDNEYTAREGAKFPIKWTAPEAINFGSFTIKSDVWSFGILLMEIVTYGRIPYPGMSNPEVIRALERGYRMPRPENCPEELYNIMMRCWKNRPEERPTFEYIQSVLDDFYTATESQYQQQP
Tag: Criterion met if measured phosphorylation enrichment is not below 0.7, Criterion not met if it is.

Confirm if phosphorylation enrichment reported for the sequence LWPIWYSCHRP [MRGPRX1_Y130_R131S] is 0.7 or above.
Criterion not met

Would you say IDSTPYGQWYE [RPS8_Y109_R110G] shows phosphorylation enrichment at minimum 0.7?
Criterion met

Hi, just wondering whether LEFGDYHPLKP [VPS35L_Y32] shows phosphorylation enrichment of 0.7 or higher.
Criterion met

Could you verify whether the entry RLPSGYGLAFR [DLK1_Y262_YF] shows phosphorylation enrichment of no less than 0.7?
Criterion not met

Would you say NFADPYRQLPF [CTNND2_Y503_Q507P_YF] shows phosphorylation enrichment at minimum 0.7?
Criterion not met
